Test system: Staphylococcus aureus
Assay: Antimicrobial activity against penicillin-resistant Staphylococcus aureus assessed as growth inhibition after 24 hrs by two-fold serial dilution technique
Type: functional
Test readout: MIC (µg/mL)
Express it in µg/mL; write the number only.

May I ask what MIC has been recorded for O=C(Nc1ccc(N2CCC(O)(c3ccccc3)CC2)c([N+](=O)[O-])c1)c1cc(Cl)ccc1O ?
0.39

May I ask what MIC has been recorded for O=C(Nc1ccc(Br)cc1)c1cc(Br)cc(Br)c1O [TRIBROMSALAN] ?
0.0975

May I ask what MIC has been recorded for O=C(Nc1ccc(N2CCCCC2)c([N+](=O)[O-])c1)c1cc(Cl)ccc1O ?
0.195

May I ask what MIC has been recorded for Cc1ccc(Oc2ccc(NC(=O)c3cc(Cl)ccc3O)cc2[N+](=O)[O-])cc1 ?
0.39

----------
Tested on: Cryptococcus neoformans
Test: Antimicrobial activity against Cryptococcus neoformans assessed as growth inhibition after 24 hrs by two-fold serial dilution technique
Format: functional
Binary call on MIC with cut-off 6 µg/mL: strictly below means Condition met, and equality or higher means Condition not met.

Confirm or reject: MIC of O=C(Nc1ccc(NC2CCCCC2)c([N+](=O)[O-])c1)c1cc(Cl)ccc1O lies strictly below 6 µg/mL
Condition not met

Confirm or reject: MIC of O=C(Nc1ccc(Oc2ccc(Cl)cc2)c([N+](=O)[O-])c1)c1cc(Cl)ccc1O lies strictly below 6 µg/mL
Condition not met

Confirm or reject: MIC of CN1CCN(c2ccc(NC(=O)c3cc(Cl)ccc3O)cc2[N+](=O)[O-])CC1 lies strictly below 6 µg/mL
Condition not met

Confirm or reject: MIC of CC1CCCN(c2ccc(NC(=O)c3cc(Cl)ccc3O)cc2[N+](=O)[O-])C1 (stereo not given) lies strictly below 6 µg/mL
Condition not met

Confirm or reject: MIC of CCOc1ccc(NC(=O)c2cc(Cl)ccc2O)cc1[N+](=O)[O-] lies strictly below 6 µg/mL
Condition not met

Confirm or reject: MIC of O=C(Nc1ccc(N2CCC(O)(c3ccccc3)CC2)c([N+](=O)[O-])c1)c1cc(Cl)ccc1O lies strictly below 6 µg/mL
Condition met

Confirm or reject: MIC of O=C(Nc1ccc(N2CCCC2)c([N+](=O)[O-])c1)c1cc(Cl)ccc1O lies strictly below 6 µg/mL
Condition not met

Confirm or reject: MIC of O=C(Nc1ccc(Oc2ccccc2)c([N+](=O)[O-])c1)c1cc(Cl)ccc1O lies strictly below 6 µg/mL
Condition not met

Confirm or reject: MIC of CCC1CCCCN1c1ccc(NC(=O)c2cc(Cl)ccc2O)cc1[N+](=O)[O-] (stereo not given) lies strictly below 6 µg/mL
Condition not met

Confirm or reject: MIC of O=C(Nc1ccc(N2CCCCCC2)c([N+](=O)[O-])c1)c1cc(Cl)ccc1O lies strictly below 6 µg/mL
Condition not met

Confirm or reject: MIC of O=C(Nc1ccc(N2CCC(c3ccccc3)CC2)c([N+](=O)[O-])c1)c1cc(Cl)ccc1O lies strictly below 6 µg/mL
Condition met

Confirm or reject: MIC of O=C(Nc1ccc(N2CCN(c3ccccc3)CC2)c([N+](=O)[O-])c1)c1cc(Cl)ccc1O lies strictly below 6 µg/mL
Condition not met

Confirm or reject: MIC of O=C(Nc1ccc(N2CCCCC2)c([N+](=O)[O-])c1)c1cc(Cl)ccc1O lies strictly below 6 µg/mL
Condition met

Confirm or reject: MIC of CCCCN(CCCC)c1ccc(NC(=O)c2cc(Cl)ccc2O)cc1[N+](=O)[O-] lies strictly below 6 µg/mL
Condition not met

Confirm or reject: MIC of O=C(Nc1ccc(Br)cc1)c1cc(Br)cc(Br)c1O lies strictly below 6 µg/mL
Condition not met

Confirm or reject: MIC of Cc1cccc(Oc2ccc(NC(=O)c3cc(Cl)ccc3O)cc2[N+](=O)[O-])c1 lies strictly below 6 µg/mL
Condition not met

Confirm or reject: MIC of CC1CCN(c2ccc(NC(=O)c3cc(Cl)ccc3O)cc2[N+](=O)[O-])CC1 lies strictly below 6 µg/mL
Condition met

Confirm or reject: MIC of C[C@@H]1[C@H](O)[C@@H](C)/C=C/C=C/C=C/C=C/C=C/C=C/C=C/[C@H](O[C@@H]2O[C@H](C)[C@@H](O)[C@H](N)[C@@H]2O)C[C@@H]2O[C@](O)(C[C@@H](O)C[C@@H](O)[C@H](O)CC[C@@H](O)C[C@@H](O)CC(=O)O[C@H]1C)C[C@H](O)[C@H]2C(=O)O lies strictly below 6 µg/mL
Condition met

Confirm or reject: MIC of CC1CCCCN1c1ccc(NC(=O)c2cc(Cl)ccc2O)cc1[N+](=O)[O-] (stereo not given) lies strictly below 6 µg/mL
Condition not met

Confirm or reject: MIC of Cc1ccc(Oc2ccc(NC(=O)c3cc(Cl)ccc3O)cc2[N+](=O)[O-])cc1 lies strictly below 6 µg/mL
Condition not met

----------
System: Staphylococcus aureus
Test: Antimicrobial activity against penicillin-resistant Staphylococcus aureus assessed as growth inhibition after 24 hrs by two-fold serial dilution technique
Assay type: functional
Answer each item with its documented MIC.

May I ask what MIC has been recorded for CN1CCN(c2ccc(NC(=O)c3cc(Cl)ccc3O)cc2[N+](=O)[O-])CC1 ?
0.195 µg/mL

May I ask what MIC has been recorded for CC1CCN(c2ccc(NC(=O)c3cc(Cl)ccc3O)cc2[N+](=O)[O-])CC1 ?
0.0975 µg/mL

May I ask what MIC has been recorded for O=C(Nc1ccc(N2CCCCCC2)c([N+](=O)[O-])c1)c1cc(Cl)ccc1O ?
0.0975 µg/mL

May I ask what MIC has been recorded for CCC1CCCCN1c1ccc(NC(=O)c2cc(Cl)ccc2O)cc1[N+](=O)[O-] (stereo not given) ?
0.39 µg/mL

May I ask what MIC has been recorded for CC1CCCCN1c1ccc(NC(=O)c2cc(Cl)ccc2O)cc1[N+](=O)[O-] (stereo not given) ?
0.0975 µg/mL

----------
Tested on: Staphylococcus aureus
Test: Antimicrobial activity against penicillin-resistant Staphylococcus aureus assessed as growth inhibition after 24 hrs by two-fold serial dilution technique
Type: functional
Answer each item with its documented MIC.
# number then unit; no other words

May I ask what MIC has been recorded for O=C(Nc1ccc(Oc2ccc(Cl)cc2)c([N+](=O)[O-])c1)c1cc(Cl)ccc1O ?
0.78 mg/L

May I ask what MIC has been recorded for O=C(Nc1ccc(N2CCN(c3ccccc3)CC2)c([N+](=O)[O-])c1)c1cc(Cl)ccc1O ?
0.39 mg/L

May I ask what MIC has been recorded for O=C(Nc1ccc(NC2CCCCC2)c([N+](=O)[O-])c1)c1cc(Cl)ccc1O ?
0.0975 mg/L

May I ask what MIC has been recorded for O=C(Nc1ccc(N2CCCC2)c([N+](=O)[O-])c1)c1cc(Cl)ccc1O ?
0.0975 mg/L

----------
System: Staphylococcus aureus
Assay: Antimicrobial activity against penicillin-resistant Staphylococcus aureus assessed as growth inhibition after 24 hrs by two-fold serial dilution technique
Assay type: functional
Answer each item with its documented MIC.
Express it in µg/mL; write the number only.

May I ask what MIC has been recorded for Cc1cccc(Oc2ccc(NC(=O)c3cc(Cl)ccc3O)cc2[N+](=O)[O-])c1 ?
0.195

May I ask what MIC has been recorded for CC1CCCN(c2ccc(NC(=O)c3cc(Cl)ccc3O)cc2[N+](=O)[O-])C1 (stereo not given) ?
0.39

May I ask what MIC has been recorded for O=C(Nc1ccc(N2CCC(c3ccccc3)CC2)c([N+](=O)[O-])c1)c1cc(Cl)ccc1O ?
0.39

May I ask what MIC has been recorded for O=C(Nc1ccc(Oc2ccccc2)c([N+](=O)[O-])c1)c1cc(Cl)ccc1O ?
0.00609

----------
Test system: Rodentolepis nana
Assay: Cestodicidal activity against Hymenolepis nana infected in rat at 250 mg/kg, po administered as single dose
Format: functional, organism-based
Design: dose 250 mg/kg
The source made the active and inactive calls. The rule behind the calls is not given here.
Test readout: Activity

In the examples that follow, each entry is paired with its recorded Activity.
Cc1cccc(Oc2ccc(NC(=O)c3cc(Cl)ccc3O)cc2[N+](=O)[O-])c1	inactive
O=C(Nc1ccc(Oc2ccc(Cl)cc2)c([N+](=O)[O-])c1)c1cc(Cl)ccc1O	inactive
CCCCN(CCCC)c1ccc(NC(=O)c2cc(Cl)ccc2O)cc1[N+](=O)[O-]	inactive
CCOc1ccc(NC(=O)c2cc(Cl)ccc2O)cc1[N+](=O)[O-]	inactive
Cc1ccc(Oc2ccc(NC(=O)c3cc(Cl)ccc3O)cc2[N+](=O)[O-])cc1	inactive

Switching to the query record.
Form field - read-out: Activity; system: Rodentolepis nana; submitted item: O=C(Nc1ccc(N2CCCC2)c([N+](=O)[O-])c1)c1cc(Cl)ccc1O
inactive
